conditions: in methanol, 278.15 K
VALUE TYPE: solubility (mole fraction)

Q: Query solubility (mole fraction) for `Cc1cc(C)c(C(=O)P(=O)(c2ccccc2)c2ccccc2)c(C)c1`
Result: 0.125

====

settings: in n-propanol, 278.15 K
VALUE TYPE: solubility (mole fraction)
Just the number, please, no unit after it.

Q: Query solubility (mole fraction) for `Cc1cc(C)c(C(=O)P(=O)(c2ccccc2)c2ccccc2)c(C)c1`
Result: 0.0983

====

details: in ethanol, 298.15 K
VALUE TYPE: solubility (mole fraction)
Just the number, please, no unit after it.

Q: Query solubility (mole fraction) for `Cc1cc(C)c(C(=O)P(=O)(c2ccccc2)c2ccccc2)c(C)c1`
Result: 0.184

====

conditions: in isopropanol, 298.15 K
VALUE TYPE: solubility (mole fraction)

Q: Query solubility (mole fraction) for `Cc1cc(C)c(C(=O)P(=O)(c2ccccc2)c2ccccc2)c(C)c1`
Result: 0.158

====

conditions: in ethanol, 288.15 K
VALUE TYPE: solubility (mole fraction)
Just the number, please, no unit after it.

Q: Query solubility (mole fraction) for `Cc1cc(C)c(C(=O)P(=O)(c2ccccc2)c2ccccc2)c(C)c1`
Result: 0.13

====

settings: in methanol, 308.15 K
VALUE TYPE: solubility (mole fraction)
Just the number, please, no unit after it.

Q: Query solubility (mole fraction) for `Cc1cc(C)c(C(=O)P(=O)(c2ccccc2)c2ccccc2)c(C)c1`
Result: 0.298

====

conditions: in methyl acetate, 303.15 K
VALUE TYPE: solubility (mole fraction)
Just the number, please, no unit after it.

Q: Query solubility (mole fraction) for `Cc1cc(C)c(C(=O)P(=O)(c2ccccc2)c2ccccc2)c(C)c1`
Result: 0.186

====

details: in methyl acetate, 293.15 K
VALUE TYPE: solubility (mole fraction)
Just the number, please, no unit after it.

Q: Query solubility (mole fraction) for `Cc1cc(C)c(C(=O)P(=O)(c2ccccc2)c2ccccc2)c(C)c1`
Result: 0.12

====

settings: in isopropanol, 273.15 K
VALUE TYPE: solubility (mole fraction)
Just the number, please, no unit after it.

Q: Query solubility (mole fraction) for `Cc1cc(C)c(C(=O)P(=O)(c2ccccc2)c2ccccc2)c(C)c1`
Result: 0.0262

====

conditions: in acetonitrile, 308.15 K
VALUE TYPE: solubility (mole fraction)
Just the number, please, no unit after it.

Q: Query solubility (mole fraction) for `Cc1cc(C)c(C(=O)P(=O)(c2ccccc2)c2ccccc2)c(C)c1`
Result: 0.271

====

conditions: in methyl acetate, 273.15 K
VALUE TYPE: solubility (mole fraction)

Q: Query solubility (mole fraction) for `Cc1cc(C)c(C(=O)P(=O)(c2ccccc2)c2ccccc2)c(C)c1`
Result: 0.0504

====

settings: in acetonitrile, 303.15 K
VALUE TYPE: solubility (mole fraction)
Just the number, please, no unit after it.

Q: Query solubility (mole fraction) for `Cc1cc(C)c(C(=O)P(=O)(c2ccccc2)c2ccccc2)c(C)c1`
Result: 0.197

====

settings: in n-propanol, 308.15 K
VALUE TYPE: solubility (mole fraction)
Just the number, please, no unit after it.

Q: Query solubility (mole fraction) for `Cc1cc(C)c(C(=O)P(=O)(c2ccccc2)c2ccccc2)c(C)c1`
Result: 0.262

====

conditions: in ethyl acetate, 298.15 K
VALUE TYPE: solubility (mole fraction)
Just the number, please, no unit after it.

Q: Query solubility (mole fraction) for `Cc1cc(C)c(C(=O)P(=O)(c2ccccc2)c2ccccc2)c(C)c1`
Result: 0.126

Data credit: BigSolDB 2.1
